All values here come from ChEMBL document CHEMBL3885881.

species on record: Rattus norvegicus; test: DrugMatrix - Regimen: Daily Repeat; type: toxicity, organism-based, Sprague-Dawley; set-up: regimen Daily Repeat, gender Male, age 6-8 weeks; conditions: in vivo, ip, 0 mg/kg, 120 h, tissue Blood, route intraperitoneal, dose level Control, time 5 day, vehicle 100 % SALINE
experimental endpoint: ABSOLUTE EOSINOPHIL (cells/µL)
The answer is to be given in cells/µL; state only the numeric part.

Input: # lookup: ABSOLUTE EOSINOPHIL of CCN[C@@H]1C[C@H](N)[C@@H](O[C@H]2OC(CN)=CC[C@H]2N)[C@H](O)[C@H]1O[C@H]1OC[C@](C)(O)[C@H](NC)[C@H]1O
Output: 110

====

organism: Rattus norvegicus; assay: DrugMatrix - Regimen: Daily Repeat; assay type: toxicity, organism-based, Sprague-Dawley; set-up: regimen Daily Repeat, gender Male, age 6-8 weeks; conditions: in vivo, po, 0 mg/kg, 120 h, tissue Plasma, route oral GAVAGE, dose level Control, time 5 day, vehicle .5 % CMC
experimental endpoint: TOTAL PROTEIN (G/DL)
The answer is to be given in G/DL; state only the numeric part.

CO[C@H]1/C=C/O[C@@]2(C)Oc3c(C)c(O)c4c(c3C2=O)C2=NC3(CCN(CC(C)C)CC3)NC2=C(NC(=O)/C(C)=C\C=C\[C@H](C)[C@H](O)[C@@H](C)[C@@H](O)[C@@H](C)[C@H](OC(C)=O)[C@@H]1C)C4=O = 6.1
O=C1CCC(N2C(=O)c3ccccc3C2=O)C(=O)N1 (stereo not drawn) [THALIDOMIDE] = 6.77
CC(=O)CC(c1ccccc1)c1c(O)c2ccccc2oc1=O (stereo not drawn) = 6.1
O=[N+]([O-])c1ccccc1 = 6.22
CN1CCC(=C2c3ccccc3C=Cc3ccccc32)CC1 = 5.93

Input: # lookup: TOTAL PROTEIN of Cc1onc(-c2ccccc2)c1-c1ccc(S(N)(=O)=O)cc1
Output: 6.72

Input: # lookup: TOTAL PROTEIN of OC(CCN1CCCCC1)(c1ccccc1)C1CCCCC1 (stereo not drawn)
Output: 6.03

Input: # lookup: TOTAL PROTEIN of CNC(=C[N+](=O)[O-])NCCSCc1ccc(CN(C)C)o1
Output: 6.1

====

species on record: Rattus norvegicus; test: DrugMatrix - Regimen: Daily Repeat; format: toxicity, organism-based, Sprague-Dawley; set-up: regimen Daily Repeat, gender Male, age 6-8 weeks; conditions: in vivo, po, 0 mg/kg, 72 h, tissue Plasma, route oral GAVAGE, dose level Control, time 3 day, […]
experimental endpoint: SODIUM (MEQ/L)
The answer is to be given in MEQ/L; state only the numeric part.

The following molecules have reported results that may help.
C[C@H]1O[C@@H](O[C@H]2[C@@H](O)C[C@H](O[C@H]3[C@@H](O)C[C@H](O[C@H]4CC[C@@]5(C)[C@H](CC[C@@H]6[C@@H]5CC[C@]5(C)[C@@H](C7=CC(=O)OC7)CC[C@]65O)C4)O[C@@H]3C)O[C@@H]2C)C[C@H](O)[C@@H]1O [DIGITOXIN] = 137.67
C[C@]12CC[C@@H]3c4ccc(O)cc4CC[C@H]3[C@@H]1CC[C@@H]2O [ESTRADIOL] = 142.48
CC(=O)Nc1ccc(O)cc1 [ACETAMINOPHEN] = 144.12
Cc1cccc(Nc2ccncc2S(=O)(=O)NC(=O)NC(C)C)c1 [TORSEMIDE] = 142.48

Now for a further molecule.
Input: # lookup: SODIUM of CCOC(=O)C(C)(C)Oc1ccc(Cl)cc1 [CLOFIBRATE]
Output: 142.22

====

species on record: Rattus norvegicus; test: DrugMatrix - Regimen: Daily Repeat; format: toxicity, organism-based, Sprague-Dawley; set-up: regimen Daily Repeat, gender Male, age 6-8 weeks; conditions: in vivo, po, 0 mg/kg, 72 h, tissue Blood, route oral GAVAGE, dose level Control, time 3 day, vehicle 100 % WATER
experimental endpoint: MEAN CORPUSCULAR HEMOGLOBIN CONCENTRATION (G/DL)
The answer is to be given in G/DL; state only the numeric part.

C[C@@H]1C[C@@H]([C@H](O)CC2CC(=O)NC(=O)C2)C(=O)[C@@H](C)C1 [CYCLOHEXIMIDE] = 36.88

Now for a further compound.
Input: # lookup: MEAN CORPUSCULAR HEMOGLOBIN CONCENTRATION of CC(C)(C)c1ccc(C(=O)CCCN2CCC(OC(c3ccccc3)c3ccccc3)CC2)cc1
Output: 40.65

====

# LYMPHOCYTE per record follows
species on record: Rattus norvegicus; assay: DrugMatrix - Regimen: Daily Repeat; assay type: toxicity, organism-based, Sprague-Dawley; parameters: regimen Daily Repeat, gender Male, age 6-8 weeks; conditions: in vivo, po, 10 mg/kg, 120 h, tissue Blood, route oral GAVAGE, dose level Low, time 5 day, […]
The answer is to be given in %; state only the numeric part.

CC(C)CC(N(C)C)C1(c2ccc(Cl)cc2)CCC1 (centres undefined) [SIBUTRAMINE] = 86.67

Input: # lookup: LYMPHOCYTE of COCCOC(=O)C1=C(C)NC(C)=C(C(=O)OC(C)C)C1c1cccc([N+](=O)[O-])c1 (centres undefined) [NIMODIPINE]
Output: 92.67

Input: # lookup: LYMPHOCYTE of COc1ccc2cc([C@H](C)C(=O)O)ccc2c1 [NAPROXEN]
Output: 86.33

Input: # lookup: LYMPHOCYTE of CCOC(=O)C1=C(C)NC(C)=C(C(=O)OC)C1c1cccc([N+](=O)[O-])c1 (centres undefined) [NITRENDIPINE]
Output: 90

====

organism: Rattus norvegicus; experiment: DrugMatrix - Regimen: Daily Repeat; assay type: toxicity, organism-based, Sprague-Dawley; set-up: regimen Daily Repeat, gender Male, age 6-8 weeks; conditions: in vivo, po, 0 mg/kg, 72 h, tissue Plasma, route oral GAVAGE, dose level Control, time 3 day, […]
experimental endpoint: PHOSPHORUS (mg/dL)
The answer is to be given in mg/dL; state only the numeric part.

The following compounds have reported results that may help.
C[C@]12CC[C@@H]3c4ccc(O)cc4CC[C@H]3[C@@H]1CC[C@@H]2O [ESTRADIOL] = 9.52
S=C=Nc1cccc2ccccc12 [1-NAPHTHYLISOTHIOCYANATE] = 9.25

Input: # lookup: PHOSPHORUS of CCCCCCCCc1ccc(O)cc1 [4-OCTYLPHENOL]
Output: 11.73

Input: # lookup: PHOSPHORUS of CC(=O)Nc1cccc(O)c1 [METACETAMOL]
Output: 11.3

Input: # lookup: PHOSPHORUS of Clc1ccc(Cl)cc1 [1,4-DICHLOROBENZENE]
Output: 10.2

Input: # lookup: PHOSPHORUS of CC(C)Cc1ccc(C(C)C(=O)O)cc1 (stereo unspecified) [IBUPROFEN]
Output: 8.77

Input: # lookup: PHOSPHORUS of COc1ccc2[nH]c([S+]([O-])Cc3ncc(C)c(OC)c3C)nc2c1 (stereo unspecified) [OMEPRAZOLE]
Output: 10.88

Input: # lookup: PHOSPHORUS of CCOC(=O)C(C)(C)Oc1ccc(Cl)cc1 [CLOFIBRATE]
Output: 8.28

Input: # lookup: PHOSPHORUS of COCCOC(=O)C1=C(C)NC(C)=C(C(=O)OC(C)C)C1c1cccc([N+](=O)[O-])c1 (stereo unspecified) [NIMODIPINE]
Output: 10.85

Input: # lookup: PHOSPHORUS of C[C@H]1O[C@@H](O[C@H]2[C@@H](O)C[C@H](O[C@H]3[C@@H](O)C[C@H](O[C@H]4CC[C@@]5(C)[C@H](CC[C@@H]6[C@@H]5CC[C@]5(C)[C@@H](C7=CC(=O)OC7)CC[C@]65O)C4)O[C@@H]3C)O[C@@H]2C)C[C@H](O)[C@@H]1O [DIGITOXIN]
Output: 10.33

Input: # lookup: PHOSPHORUS of CC(=O)Nc1ccc(O)cc1 [ACETAMINOPHEN]
Output: 10.2

Input: # lookup: PHOSPHORUS of CCOC(=O)C1=C(C)NC(C)=C(C(=O)OC)C1c1cccc([N+](=O)[O-])c1 (stereo unspecified) [NITRENDIPINE]
Output: 10.85

Input: # lookup: PHOSPHORUS of O=C(O)Cc1ccccc1Nc1c(Cl)cccc1Cl [DICLOFENAC]
Output: 9.27

Input: # lookup: PHOSPHORUS of Cc1cccc(Nc2ccncc2S(=O)(=O)NC(=O)NC(C)C)c1 [TORSEMIDE]
Output: 9.52

Input: # lookup: PHOSPHORUS of CC(C)(Oc1ccc(C2CCCc3ccccc32)cc1)C(=O)O (stereo unspecified) [NAFENOPIN]
Output: 11.77

Input: # lookup: PHOSPHORUS of CC/C(=C(/CC)c1ccc(O)cc1)c1ccc(O)cc1 [DIETHYLSTILBESTROL]
Output: 10.07
